B1: TPR t1 (parent)
chain: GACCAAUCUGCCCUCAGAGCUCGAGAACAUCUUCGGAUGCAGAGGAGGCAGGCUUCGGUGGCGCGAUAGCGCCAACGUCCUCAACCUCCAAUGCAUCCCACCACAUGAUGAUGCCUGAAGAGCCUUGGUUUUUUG

Variants of: B1
Test: polymerase ribozyme fitness, log enrichment relative to wild type (log ratio); higher = more active; in vitro selection for triplet polymerase activity
Would you mind telling me the reported polymerase ribozyme fitness (log ratio) of each entry?
Enter the number alone.

Check the records and state polymerase ribozyme fitness (log ratio) for A6U G57A -0.751

Check the records and state polymerase ribozyme fitness (log ratio) for C53A C88A -0.22

Check the records and state polymerase ribozyme fitness (log ratio) for C70U C97U C101U C102A -4.84

Check the records and state polymerase ribozyme fitness (log ratio) for C11U G60A U131G -2.06

Check the records and state polymerase ribozyme fitness (log ratio) for G47A A50U -1.57

Check the records and state polymerase ribozyme fitness (log ratio) for U38G C89A U96A C114G -5.44

Check the records and state polymerase ribozyme fitness (log ratio) for U33G C82U A83C -6.87

Check the records and state polymerase ribozyme fitness (log ratio) for A29G C70U G93U -3

Check the records and state polymerase ribozyme fitness (log ratio) for A41C C62U -2.99

Check the records and state polymerase ribozyme fitness (log ratio) for A41C G113C -2.86

Check the records and state polymerase ribozyme fitness (log ratio) for C102A U109G -2.56
